read-out: Pro-epidermal growth factor (Homo sapiens); test: LTEA_HepaRG_EGF: Life Technologies and Expression Analysis (LTEA) Assay for Epidermal growth factor (EGF) using HepaRG (AID 2283489); conditions: mRNA level, 48 h; actives raise or lower the signal
Calls of active or inactive are those of the source. Rule for the calls: active = hit-call score of the fitted dose curve at least 0.9, where 1 is the maximum; inactive = score below 0.9.
Returns: one label drawn from TRUE (active), FALSE (inactive)

Example cases with answers are listed next.
- Molecule: "Cn1c(=O)cc(Oc2ccc(F)cc2F)c2cnc(NCC(C)(C)O)nc21"
  Label class: "FALSE"
- Molecule: "Cc1ccc(S(=O)(=O)O)cc1C"
  Label class: "FALSE"

Can you look up the reported call for COc1ccc(-n2nc(C(F)F)cc2-c2ccc(S(C)=O)cc2)cc1 (stereo not drawn) for me?
FALSE

State the result this test recorded for `CC(C)CCCCCCCOC(=O)CCCCC(=O)OCCCCCCCC(C)C` .
FALSE

Returns: the outcome recorded for `CCOc1cccc(-n2cc(C(=O)N3CCN(c4cc(C(=O)O)c5ccccc5c4)CC3)nc2-c2ccc(C)cc2)c1` in this assay.
TRUE
